Measured values drawn from PubChem BioAssay for this set.

This listing pairs compounds with measured vesicle binding response.
- measurement-protocol: inhibitors of CD8+ T cell-vesicle binding, pilot screen, LFA-1/ICAM-1 modulator project, MLPCN validation set, flow cytometry (AID 2523);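 note: mean PE anti-B7-1 fluorescence of CD8+ cells relative to row control; 100% = QL9-loaded vesicles with DMSO vehicle in the same plate row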
- run-parameters: 2C mouse CD8+ T cells, at 7 µM, hits give low values
measure: vesicle binding response (%)

>>> value("O=C(NCCN1CCOCC1)c1ccc(Cl)cc1")
168
>>> value("CC1(C)Cc2nc3oc4c(NCc5ccccc5)ncnc4c3cc2CO1")
183
>>> value("C=C(C)COc1ccc(-c2nc(N)ncc2-c2ccc(OC)cc2)c(O)c1")
43.9
>>> value("NC(=O)c1c(-c2ccccc2)oc2ccc(O)cc12")
260
>>> value("CC(=O)N1CC2(C)CN(C(C)=O)CC(C)(C1)C2")
169
>>> value("COc1ccc(CCN2CCC(Nc3nc4ccccc4n3Cc3ccc(F)cc3)CC2)cc1")
112
>>> value("COc1ccc(-c2noc(CCc3ccccc3)n2)cc1")
174
>>> value("COC(=O)c1cc(-c2c(C)oc3cc(OC)ccc3c2=O)c(C)o1")
199
>>> value("CCN(Cc1ccncc1)Cc1nc(Cc2ccccc2Cl)no1")
164
>>> value("OCCN1CCN(CCCN2c3ccccc3Sc3ccc(Cl)cc32)CC1")
268
>>> value("COc1c2occc2c(OC)c2c(=O)cc(C(F)(F)C(F)(F)F)oc12")
156
>>> value("CC(=O)NCCCC(=O)NC(CCC(=O)OCc1ccccc1)C(=O)OCc1ccccc1 (stereo unspecified)")
425
>>> value("Cc1nc(C)c(C)nc1C")
132
>>> value("Cn1c(=O)[nH]c(=O)c2c1ncn2CCN1CCOCC1")
288
>>> value("C[C@]12CC[C@H]3C(=CCc4cc(O)ccc43)[C@@H]1CCC2=O")
172
>>> value("CC(=O)N(CCC1(C(C)C)CCOC(C)(C)C1)Cc1ccco1 (stereo unspecified)")
276
>>> value("C#C[C@]1(O)CC[C@H]2[C@@H]3CCC4=C(CCC(=O)C4)[C@H]3CC[C@@]21C")
188
>>> value("O=C(OCCN1CCCC1)C1(c2ccccc2)CCCC1")
226
>>> value("CC12CCC(C(=O)Nc3ccccc3Br)(C/C1=N\\O)C2(C)C (stereo unspecified)")
154
>>> value("Cc1csc(CCc2nc(C)cs2)n1")
130
>>> value("COc1ccc(C2(CCN=Cc3ccc(N(C)C)cc3)CCOC(C)(C)C2)cc1 (stereo unspecified)")
222

###

- measurement-protocol: RPL19A-GFP modulators, yeast TOR pathway, confirmation, cell-based, S. cerevisiae, flow cytometry, cherry picks, mother/daughter gates (AID 2270)
- run-parameters: S. cerevisiae RPL19A-GFP strain, 3 h, at 10 µM, hits give low values, 100 = same GFP as DMSO wells
measure: GFP response vs DMSO (%)

>>> value("Cc1ccc(N(C(=O)CNC(=O)c2ccco2)C(C(=O)NC2CCCC2)c2cccnc2)cc1C (stereo not drawn)")
104
>>> value("Cc1csc(Nc2ccccc2C(F)(F)F)n1")
96.2
>>> value("Cc1ncc2c(n1)-c1cc(F)ccc1SC2")
104
>>> value("CNc1cc(CSC)nc(SCc2ccc(Cl)cc2Cl)n1")
93.5
>>> value("COc1cc(OC)cc(C(=O)N2CCN(c3ccccc3F)CC2)c1")
98.6
>>> value("OCc1ccccc1SSc1ccccc1CO")
101
>>> value("C/C(=N\\NC(=O)c1cccc(Cl)c1)c1cccc(NC(=O)C(C)C)c1")
96.2
>>> value("COCCNC(=O)c1ccc(Cl)c(Cl)c1")
97.2

###

This listing pairs compounds with measured superoxide response (% of plate).
- measurement-protocol: superoxide lowering in aged yeast cells, pilot screen, validation compound set (AID 2706);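 note: yeast exposed to compound for one week at 30 degrees C before staining; 100% = mean of all compound wells on the same plate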
- run-parameters: S. cerevisiae aging, superoxide DHE fluorescence; at 10 µM, hits give low values
measure: superoxide response (% of plate) (%)

>>> value("C[N+]12CCC(CC1)C(OC(=O)C(O)(c1ccccc1)c1ccccc1)C2 (stereo not drawn)")
104
>>> value("COC1(C)CC2C(CC1OC(=O)c1cc([N+](=O)[O-])cc([N+](=O)[O-])c1)C2(C)C (stereo not drawn)")
114
>>> value("CNCCc1ccccn1")
122
>>> value("CC1(C)C2CCC1(C(=O)O)c1nc3ccccc3nc12 (stereo not drawn)")
72.9
>>> value("O=C(Oc1cccccc1=O)c1ccccc1")
105
>>> value("COc1cc2c(cc1OC)-c1cc(OCc3ccccc3Cl)nc(=O)n1CC2")
97.5
>>> value("CCOc1ccccc1Oc1coc2cc(OCC(=O)O)ccc2c1=O")
111
>>> value("O=C(Nc1ccc(Oc2c(F)c(F)c(F)c(F)c2F)cc1)OC1CCN2Cc3ccccc3N=C12 (stereo not drawn)")
85.7

###

- measurement-protocol: modulators of CIT2-GFP expression in yeast, confirmation, S. cerevisiae, GFP fusion, cherry picks, mother/daughter gates (AID 2274)
- run-parameters: S. cerevisiae CIT2-GFP strain, flow cytometry, 3 h; at 10 µM; hits give high values
measure: GFP response, % of DMSO (%)

>>> value("Cc1cc(N)n2ncc(-c3ccccc3)c2n1")
101
>>> value("O=C(O)Cc1csc(-c2cccc(Oc3ccccc3)c2)n1")
93.9
>>> value("COc1ccc(Cc2nnc(NC(=O)c3ccccc3F)s2)cc1")
100
>>> value("COc1ccc(-c2nc(-c3ccccc3OC)no2)cc1OC")
94.4
>>> value("CCOc1c(Br)ccc2c1sc1nc[nH]c(=O)c12")
100
>>> value("CCCc1[nH]nc2c1C(c1ccc(O)c(OC)c1)C(C#N)=C(N)O2 (stereo not given)")
103
>>> value("COc1ccc(N2C(=O)C(Cl)=C(NCc3ccccc3)C2=O)cc1")
91.7
>>> value("CCOC(=O)/C(=C\\c1cn(C)c2ccccc12)[N+](=O)[O-]")
86.9
>>> value("Cc1ccc(-n2ncc(C#N)c2/N=C/N(C)C)cc1")
94.4
>>> value("Cc1cc(=O)oc2c(C(=O)/C=C\\c3cccs3)c(O)ccc12")
95.9
>>> value("CCCc1ccc(OCC(=O)NNC(=S)NC(=O)c2ccco2)cc1")
112
>>> value("Cc1ccc(S(=O)(=O)N(CC(=O)NCc2ccncc2)Cc2ccccc2F)cc1")
103
>>> value("Cc1ccc(S(=O)(=O)N2CCCC2C(=O)OCc2ccco2)cc1 (stereo not given)")
112
>>> value("COc1cccc(C2CC(c3c(-c4ccccc4)c4cc(Cl)ccc4[nH]c3=O)=NN2S(C)(=O)=O)c1OC (stereo not given)")
101
>>> value("CC(C(=O)O)n1nc(-c2ccccc2)c2ccccc21 (stereo not given)")
102

###

This listing pairs molecules with measured GFP response, % of DMSO.
- measurement-protocol: AGP1-GFP expression modulators, hit retest, confirmation, cell-based, flow cytometry, S. cerevisiae, cherry picks (AID 2273);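 note: median GFP channel fluorescence over the whole cell population gate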
- run-parameters: S. cerevisiae AGP1-GFP strain, 3 h, at 10 µM
Calls of active or inactive are those of the source.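 How the source made its calls: active means GFP response above 150% of the DMSO level; inconclusive means fewer than 70 events counted for a yeast strain; inactive means the rest.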
measure: GFP response, % of DMSO

>>> value("CCOC(=O)c1cc(S(=O)(=O)N2CCN(C(=O)OCC)CC2)cn1C")
"95.7% (inactive)"
>>> value("Cc1ccc(-c2csc(NC(=O)c3cccc([N+](=O)[O-])c3)n2)cc1")
"99.6% (inactive)"
>>> value("CCOc1ccccc1C1N=C(c2ccc(OC)cc2)CC(c2ccccc2O)N1 (stereo unspecified)")
"102% (inactive)"
>>> value("CCN(CC)C(=O)Cn1c(C)c(/C=C/c2cc[n+](C)cc2)c2ccccc21")
"98.6% (inactive)"
>>> value("Cc1cccc(C)c1NC(=O)c1nc(S(=O)(=O)Cc2ccccc2)ncc1Cl")
"102% (inactive)"
>>> value("CCOC(=O)c1c(C)[nH]c(C)c1C(=O)COC(=O)c1cc2ccccc2cc1O")
"103% (inactive)"

###

- subject-of-test: Integrin beta-1 (Homo sapiens) + Integrin alpha-4 (Homo sapiens) (UniProt P13612+P05556)
- Sequence (P05556 whole entry, looked up): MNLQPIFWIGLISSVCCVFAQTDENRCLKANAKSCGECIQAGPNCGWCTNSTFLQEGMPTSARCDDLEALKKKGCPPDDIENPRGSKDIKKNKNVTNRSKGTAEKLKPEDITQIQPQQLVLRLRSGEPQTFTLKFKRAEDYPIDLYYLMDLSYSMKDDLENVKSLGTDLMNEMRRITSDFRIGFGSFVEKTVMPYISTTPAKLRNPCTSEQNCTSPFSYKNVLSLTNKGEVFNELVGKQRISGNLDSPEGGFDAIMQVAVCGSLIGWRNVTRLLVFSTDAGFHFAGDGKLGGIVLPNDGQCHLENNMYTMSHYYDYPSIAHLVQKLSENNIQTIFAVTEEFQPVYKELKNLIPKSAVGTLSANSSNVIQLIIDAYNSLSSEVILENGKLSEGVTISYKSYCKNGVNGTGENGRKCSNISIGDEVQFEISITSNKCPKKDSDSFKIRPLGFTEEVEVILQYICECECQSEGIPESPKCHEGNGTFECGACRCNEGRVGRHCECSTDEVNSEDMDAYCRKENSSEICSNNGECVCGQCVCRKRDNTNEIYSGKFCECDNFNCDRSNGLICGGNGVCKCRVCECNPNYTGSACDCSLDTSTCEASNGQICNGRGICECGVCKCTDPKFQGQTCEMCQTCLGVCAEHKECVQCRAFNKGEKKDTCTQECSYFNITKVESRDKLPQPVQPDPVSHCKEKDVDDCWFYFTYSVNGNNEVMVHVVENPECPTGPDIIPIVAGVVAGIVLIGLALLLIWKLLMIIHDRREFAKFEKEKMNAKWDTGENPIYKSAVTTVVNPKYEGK
- Sequence (P13612 whole entry, looked up): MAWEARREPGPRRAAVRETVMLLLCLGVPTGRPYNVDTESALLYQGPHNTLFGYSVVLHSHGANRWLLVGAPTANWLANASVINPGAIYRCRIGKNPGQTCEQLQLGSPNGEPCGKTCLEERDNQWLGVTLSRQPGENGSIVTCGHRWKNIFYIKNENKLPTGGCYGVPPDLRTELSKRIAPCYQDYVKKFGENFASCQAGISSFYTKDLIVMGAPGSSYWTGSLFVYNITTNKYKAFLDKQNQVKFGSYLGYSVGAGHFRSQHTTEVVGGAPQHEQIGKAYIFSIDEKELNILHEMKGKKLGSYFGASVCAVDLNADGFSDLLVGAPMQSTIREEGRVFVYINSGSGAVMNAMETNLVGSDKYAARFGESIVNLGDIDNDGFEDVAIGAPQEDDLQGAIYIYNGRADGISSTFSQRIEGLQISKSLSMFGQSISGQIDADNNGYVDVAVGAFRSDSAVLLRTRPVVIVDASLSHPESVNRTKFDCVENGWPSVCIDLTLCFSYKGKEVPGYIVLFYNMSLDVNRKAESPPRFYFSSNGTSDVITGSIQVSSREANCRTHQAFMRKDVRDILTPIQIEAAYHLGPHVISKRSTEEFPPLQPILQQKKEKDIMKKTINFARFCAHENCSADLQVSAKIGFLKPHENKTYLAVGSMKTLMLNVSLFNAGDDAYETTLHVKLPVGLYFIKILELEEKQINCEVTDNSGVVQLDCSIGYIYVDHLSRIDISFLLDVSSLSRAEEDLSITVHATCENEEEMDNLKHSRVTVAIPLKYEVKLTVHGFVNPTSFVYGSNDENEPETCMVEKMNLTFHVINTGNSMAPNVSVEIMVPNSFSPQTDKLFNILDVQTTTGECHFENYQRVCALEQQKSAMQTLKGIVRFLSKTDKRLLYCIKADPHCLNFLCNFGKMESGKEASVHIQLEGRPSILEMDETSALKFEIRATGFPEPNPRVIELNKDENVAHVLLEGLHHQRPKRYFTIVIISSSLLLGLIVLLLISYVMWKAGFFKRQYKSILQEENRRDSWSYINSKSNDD
- measurement-protocol: inhibition of HUTS-21 binding to VLA-4, pilot screen, VLA-4 allosteric modulator project, U937 cells, HUTS-21 mAb, flow cytometry, validation set (AID 2674);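 note: antibody binding induced by the VLA-4 ligand LDV present at three times its Kd; 0% = LDV ligand with antibody and no compound and 100% = antibody without LDV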
- run-parameters: HUTS-21 LIBS mAb binding, at 6.7 µM, hits give high values, binding induced by LDV ligand
Calls of active or inactive are those of the source.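 How the source made its calls: active means inhibition above 50%, about 3 SD of the validation set; inactive means the rest.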
measure: inhibition

>>> value("COc1cc2c3c(c1)C1(C(=O)N3C(C)(C)C=C2C)C(C#N)=C(N)Oc2cc(C)oc(=O)c21 (stereo unspecified)")
"2.3% (inactive)"
>>> value("Cc1ncc([N+](=O)[O-])n1CC(C)O (stereo unspecified)")
"8.15% (inactive)"
>>> value("CC(=O)OC[C@H]1O[C@@H](n2ncc(=O)[nH]c2=O)[C@H](OC(C)=O)[C@@H]1OC(C)=O")
"5.49% (inactive)"
>>> value("COc1ccc(C=NCC2COc3ccccc3O2)cc1OC (stereo unspecified)")
"0.69% (inactive)"
>>> value("CC(C)Cc1ccc(C(C)C(=O)Nc2ccc(O)cc2)cc1 (stereo unspecified)")
"13.8% (inactive)"
>>> value("C[C@@H]1C[C@H]2[C@@H]3C[C@H](F)C4=CC(=O)C=C[C@]4(C)[C@@]3(F)[C@@H](O)C[C@]2(C)[C@@]1(O)C(=O)CO")
"2.56% (inactive)"
>>> value("COc1cc2c(cc1OC)C(c1cc3ccccc3oc1=O)=NC(C)(C)C2")
"10.9% (inactive)"
>>> value("O=C(O)c1cccnc1")
"13.8% (inactive)"
>>> value("O=C(O)CCCCCCCC(=O)O")
"-6.77% (inactive)"
>>> value("O=c1[nH]c(Cc2ccccc2)nc2c1oc1ccccc12")
"-7.25% (inactive)"
>>> value("Cn1cc(CN2CCCC(CO)(Cc3cccc(Cl)c3)C2)cn1 (stereo unspecified)")
"9.71% (inactive)"
>>> value("COc1ccc(C2C(=O)c3ccccc3C2=O)cc1")
"0.69% (inactive)"
>>> value("Oc1ccc(Oc2ncc(Cl)cc2Cl)cc1")
"-3.67% (inactive)"
>>> value("COc1cc(/C=C/C(=O)N2CCCC2)cc(OC)c1OC")
"6.81% (inactive)"
>>> value("CC(C)C[C@H](NC(=O)[C@@H]1Cc2ccccc2CN1C(=O)OC(C)(C)C)C(=O)NCC1CCC(C(=O)O)CC1 (stereo partly specified)")
"1.62% (inactive)"
>>> value("NCCOc1ccccc1OCCN")
"-6.77% (inactive)"
>>> value("Cc1c(OC(=O)CNC(=O)OC(C)(C)C)ccc2c3c(c(=O)oc12)CCC3")
"9.37% (inactive)"
>>> value("COc1ccc2c(c1)c(CC(=O)O)c(C)n2C(=O)c1ccc(Cl)cc1")
"-25.4% (inactive)"
>>> value("CC[N+](C)(C)Cc1ccccc1Br")
"8.25% (inactive)"
>>> value("O=C(CNC(=O)OCc1ccccc1)NC1CCCCCC1")
"10% (inactive)"
>>> value("COc1cccc(OC)c1C(=O)Nc1nc2ccc([N+](=O)[O-])cc2s1")
"-14.5% (inactive)"
>>> value("Nc1ccc(S(=O)(=O)c2ccc(N)cc2)cc1")
"8.15% (inactive)"
>>> value("OCCN(CCO)c1ccc2ccccc2c1")
"0.94% (inactive)"
>>> value("Cc1oc(/C=N/NC(=O)CC2(C)OCCO2)cc1Br")
"4.27% (inactive)"
>>> value("CN1CCC(=C2c3ccccc3C=Cc3ccccc32)CC1")
"13.8% (inactive)"
>>> value("CCc1cn([C@H]2C[C@H](O)[C@@H](CO)O2)c(=O)[nH]c1=O")
"-0.33% (inactive)"
>>> value("CCc1cccc2c1NC1(CCCC1)CC2C (stereo unspecified)")
"-16.8% (inactive)"
>>> value("CC(=O)Nc1ccc(OS(=O)(=O)c2c(C)cc(C)cc2C)cc1")
"10.9% (inactive)"
>>> value("O=C(O)CCn1c(=S)n(CCC(=O)O)c2ccccc21")
"8.15% (inactive)"
>>> value("COc1ccc(C2(CCN=Cc3ccc(N(C)C)cc3)CCOC(C)(C)C2)cc1 (stereo unspecified)")
"-3.97% (inactive)"
>>> value("CCCCNC(=O)NS(=O)(=O)c1ccc(C)cc1")
"12.8% (inactive)"
>>> value("COC(=O)c1ccc(CC(=O)c2ccc(O)cc2O)o1")
"-32.3% (inactive)"
>>> value("CC(C)COc1ccc(Cc2cnc(N)nc2N)cc1")
"3.67% (inactive)"
>>> value("CCOC(=O)C1(CCCc2ccccc2)CCN(C2CCN(C(C)=O)CC2)CC1")
"-12.4% (inactive)"
>>> value("CCn1c(=N)c(C(=O)NC)cc2c(=O)n3cccc(C)c3nc21")
"-8.75% (inactive)"
>>> value("N=C(N)c1ccc(OCCCCCOc2ccc(C(=N)N)cc2)cc1")
"-7.79% (inactive)"
